# System: PSA mRNA expression in LNAR cells
# testDetails: PSA mRNA expression in LNAR cells (hormone refractory, over-express AR)
# Assay type: cell-based
# reportedConditions: LNAR − DHT; bicalutamide induces PSA mRNA in LNAR cells; read-out: IC50 for inhibition of PSA mRNA expression (value in parentheses)
pIC50: −log10 of the molar value.
metricName: pIC50

compound="CC(O)(CS(=O)(=O)c1ccc(F)cc1)C(=O)Nc1ccc(C#N)c(C(F)(F)F)c1 (stereo not shown) [bicalutamide, reference compound]" metricname=pIC50 resultnumber=5.46

* * *

# testDetails: Liver microsomal stability, mouse
# reportedConditions: 1 μM, Mouse, 1 hr at 37° C., 1 mg/ml microsomes
metricName: Mean remaining parent with NADPH

compound="CC(=O)N[C@H](CCNC(=O)c1cc(NC(=O)c2cc(NC(=O)c3cc(NC(=O)c4nccn4C)cn3C)cn2C)cn1C)C(=O)Nc1cn(C)c(C(=O)Nc2cc(C(=O)Nc3cc(C(=O)Nc4cc(C(=O)NCCCN(C)CCCNC(=O)c5cccc(C(=O)O)c5)n(C)c4)n(C)c3)n(C)c2)n1 [Polyamide 78, ImPyPyPy-2-(R)^AcHNγ-ImPyPyPy-NHMe-IPA]" metricname="Mean remaining parent with NADPH" result=97.3%
compound="CC(=O)N[C@@H](CNC(=O)c1cc(NC(=O)c2cc(NC(=O)c3cc(NC(=O)c4nccn4C)cn3C)cn2C)cn1C)CC(=O)Nc1cn(C)c(C(=O)Nc2cc(C(=O)Nc3cc(C(=O)Nc4cc(C(=O)NCCCN(C)CCCNC(=O)c5cccc(C(=O)O)c5)n(C)c4)n(C)c3)n(C)c2)n1 [Polyamide 80, ImPyPyPy-3-(R)^AcHNγ-ImPyPyPy-NHMe-IPA]" metricname="Mean remaining parent with NADPH" result=4.0%
compound="CN(CCCNC(=O)c1cccc(C(=O)O)c1)CCCNC(=O)c1cc(NC(=O)c2cc(NC(=O)c3cc(NC(=O)c4nc(NC(=O)[C@H](N)CCNC(=O)c5cc(NC(=O)c6cc(NC(=O)c7cc(NC(=O)c8nccn8C)cn7C)cn6C)cn5C)cn4C)cn3C)cn2C)cn1C [Polyamide 1, ImPyPyPy-2-(R)H^2Nγ-ImPyPyPy-NHMe-IPA]" metricname="Mean remaining parent with NADPH" result=95.2%
compound="CN(CCCNC(=O)c1cccc(C(=O)O)c1)CCCNC(=O)c1cc(NC(=O)c2cc(NC(=O)c3cc(NC(=O)c4nc(NC(=O)C[C@@H](N)CNC(=O)c5cc(NC(=O)c6cc(NC(=O)c7cc(NC(=O)c8nccn8C)cn7C)cn6C)cn5C)cn4C)cn3C)cn2C)cn1C [Polyamide 79, ImPyPyPy-3-(R)H^2Nγ-ImPyPyPy-NHMe-IPA]" metricname="Mean remaining parent with NADPH" result=92.4%

* * *

# testDetails: Liver microsomal stability, mouse
# reportedConditions: 1 μM, Mouse, 1 hr at 37° C., 1 mg/ml microsomes
metricName: Mean remaining parent NADPH-free (%)

compound="CC(=O)N[C@H](CCNC(=O)c1cc(NC(=O)c2cc(NC(=O)c3cc(NC(=O)c4nccn4C)cn3C)cn2C)cn1C)C(=O)Nc1cn(C)c(C(=O)Nc2cc(C(=O)Nc3cc(C(=O)Nc4cc(C(=O)NCCCN(C)CCCNC(=O)c5cccc(C(=O)O)c5)n(C)c4)n(C)c3)n(C)c2)n1 [Polyamide 78, ImPyPyPy-2-(R)^AcHNγ-ImPyPyPy-NHMe-IPA]" unitsymbol=% resultnumber=100
compound="CN(CCCNC(=O)c1cccc(C(=O)O)c1)CCCNC(=O)c1cc(NC(=O)c2cc(NC(=O)c3cc(NC(=O)c4nc(NC(=O)C[C@@H](N)CNC(=O)c5cc(NC(=O)c6cc(NC(=O)c7cc(NC(=O)c8nccn8C)cn7C)cn6C)cn5C)cn4C)cn3C)cn2C)cn1C [Polyamide 79, ImPyPyPy-3-(R)H^2Nγ-ImPyPyPy-NHMe-IPA]" unitsymbol=% resultnumber=100
compound="CN(CCCNC(=O)c1cccc(C(=O)O)c1)CCCNC(=O)c1cc(NC(=O)c2cc(NC(=O)c3cc(NC(=O)c4nc(NC(=O)[C@H](N)CCNC(=O)c5cc(NC(=O)c6cc(NC(=O)c7cc(NC(=O)c8nccn8C)cn7C)cn6C)cn5C)cn4C)cn3C)cn2C)cn1C [Polyamide 1, ImPyPyPy-2-(R)H^2Nγ-ImPyPyPy-NHMe-IPA]" unitsymbol=% resultnumber=96.8
compound="CC(=O)N[C@@H](CNC(=O)c1cc(NC(=O)c2cc(NC(=O)c3cc(NC(=O)c4nccn4C)cn3C)cn2C)cn1C)CC(=O)Nc1cn(C)c(C(=O)Nc2cc(C(=O)Nc3cc(C(=O)Nc4cc(C(=O)NCCCN(C)CCCNC(=O)c5cccc(C(=O)O)c5)n(C)c4)n(C)c3)n(C)c2)n1 [Polyamide 80, ImPyPyPy-3-(R)^AcHNγ-ImPyPyPy-NHMe-IPA]" unitsymbol=% resultnumber=4.9
